biological target: corticotropin releasing factor 1 receptor; assay: cell-based or functional assay
Ends that are not written are not given here.
REPORTED PROPERTY: CRF1R Emax
Units required after the number.

A selection of reference data follows.
SQEPPISLDLPTHLLREVLEMTKADQLAQQAHSNRKLLDIA-NH2 [SEQ ID NO 99] = 4.35%
ZGPPISIDLPLILLRKMIEIEKQEKEKQQAANNRLLLDTI (C-terminal amide) [SEQ ID NO 194] = 94%
DNPSLSIDLPFILLRTLLELARTQSQRERAEQNAIIFASV-NH2 [SEQ ID NO 181] = 100%
ZGPPISIDLPFQLLRKMIEIEKQEKEKQQAANNRLLLDTI (C-terminal amide) [SEQ ID NO 84] = 99%

[Q] Look up CRF1R Emax of ZGPPISIDLPKYLLRKMIEIEKQEKEKQQAANNRLLLDTI (C-terminal amide) [SEQ ID NO 58] and report it.
[A] 16%

[Q] Look up CRF1R Emax of ZGPPISIDLPIHLLRKMIEIEKQEKEKQQAANNRLLLDTI (C-terminal amide) [SEQ ID NO 77] and report it.
[A] 5%

[Q] Look up CRF1R Emax of ZGPPISIDLPYHLLRKMIEIEKQEKEKQQAANNRLLLDTI (C-terminal amide) [SEQ ID NO 208] and report it.
[A] 81%

[Q] Look up CRF1R Emax of SQEPPISLDLPIHLLREVLEMTKADQLAQQAHSNRKLLDIA-NH2 [SEQ ID NO 94] and report it.
[A] 7.3%

[Q] Look up CRF1R Emax of IVLSLDVPGPLLQILLEQTKQEAAREQATTNARILARV-NH2 [SEQ ID NO 5] and report it.
[A] 9%

[Q] Look up CRF1R Emax of SEEPPISLDVPIGLLQEVLEMARAEQLAQQAHSNRKLMEII-NH2 [SEQ ID NO 162] and report it.
[A] 11%

Sourced from patent US20030148958A1
